Tested on: β-glucosidase
Experiment: β-glucosidase inhibitory assay in 96-well plates (p-NPG, absorbance 405 nm)
Assay type: biochemical
Conditions: concentration of 1 mM; end concentration of 100 µM in each well
Classify by measured β-glucosidase inhibition %age inhibition: Condition met if it is equal to or exceeds 20%, Condition not met if it is smaller.

Consider the following illustrative entries.
compound	assigned.category
Cc1ccc(C(=O)n2nc(C)c(/N=N/c3ccc(S(N)(=O)=O)cc3)c2C)cc1 [Compound 5h]	Condition not met
C[C@H]1O[C@H](O[C@H]2[C@H](O)[C@@H](O)[C@@H](O[C@H]3[C@H](O)[C@@H](O)C(O)O[C@@H]3CO)O[C@@H]2CO)[C@H](O)[C@@H](O)[C@@H]1N[C@H]1C=C(CO)[C@@H](O)[C@H](O)[C@H]1O (stereo partly drawn) [Acarbose, reference compound]	Condition met
Cc1nn(C(=O)c2cccc([N+](=O)[O-])c2)c(C)c1/N=N/c1ccc(S(N)(=O)=O)cc1 [Compound 5f]	Condition met
Cc1nn(C(=O)c2ccc([N+](=O)[O-])cc2)c(C)c1/N=N/c1ccc(S(N)(=O)=O)cc1 [Compound 5e]	Condition not met
COc1ccc(C(=O)n2nc(C)c(/N=N/c3ccc(S(N)(=O)=O)cc3)c2C)cc1OC [Compound 5d]	Condition not met

Req: // inclusive: β-glucosidase inhibition %age inhibition at least 20%? input: COc1ccc(C(=O)n2nc(C)c(/N=N/c3ccc(S(N)(=O)=O)cc3)c2C)cc1 [Compound 5c]
Resp: Condition not met
